Experiment: folding stability dG unfold (combined trypsin and chymotrypsin); higher = more stable
folding stability dG unfold vs 3 kcal/mol: at or above is True, below is False.

Known results for sequences:
Biopolymer Sequence	Class Assignment
SAGGMPEDMKLKFKVVDFRPHPHPDGYQIVELFYNDKLLRRLRVPPGLAVKLAKELPEDVALVTLPESAGGS [r8_41_TrMRF]	False
SAGGSAGGSAGFNIRIVNVEITGNKLTIYLPNGWVITIKFNKNGNINMKIEDIKPLPPGASAGGSAGGSAGG [r17_173_TrROS]	True
SAGKIEIVEVTKNYVKIKIKNKKTNKTIEIKIPVKKKKGKKLSKEELEELAKKLAKELYPDMKIEVEKVSAG [r5_293_TrROS_Hall]	True

Prompt: Test whether the sequence SEMTAEELAARLAERLAEEHPGEEVTVEIEVEAEVVDEETGETRTVRVTVTLRFRDGKVEVVDVKVEELPSA [r9_361_TrROS_Hall] records folding stability dG unfold of 3 kcal/mol or higher.
Completion: True

Prompt: Threshold query (folding stability dG unfold >= 3 kcal/mol) on MKKVKVTITITVPEEDKEKVKELIEKLKEAVPNVKVTSVEFDEKTGKITIVVEMTEEELEELKKALKEALES [r1_443_TrROS_Hall]
Completion: False

Prompt: Assess whether reported folding stability dG unfold for SAGGSAGGSAGPGEPVPIRLKIYGPNGQPHTHPFPVKNPEEFKDNLRFPVPNGWAVEIEYSAGGSAGGSAGG [r11_671_TrROS] sits at 3 kcal/mol or higher.
Completion: False

Prompt: Textbook exercise: given the entry SAGGSAGGSAGGAEEIARKLAEETGKKVTIRIRLPNGEVYEIELDEPLEEIEGAEIVEIESAGGSAGGSAGG [r7_998_TrROS_Hall] , state whether its folding stability dG unfold is greater than or equal to 3 kcal/mol.
Completion: False

Prompt: Given the entry SAGGSAGGSAGMKKTVTTSTAPDGTLTTTTTVPTPDSTTTVVTTTTDPTTGTTTTTTTANSAGGSAGGSAGG [r11_107_JUSTAS] , answer whether its folding stability dG unfold meets or surpasses 3 kcal/mol.
Completion: False

----------
Test: folding stability dG unfold from trypsin proteolysis; higher = more stable
Measure: folding stability dG unfold (kcal/mol)
Give bare numbers, in kcal/mol.

Biopolymer Sequence	Measure	Result Unit	Readout Number
SAGGSAGGSMTIEEIKKLAEELGIEKVEIEKVKDGYYKIKIYNKKTGKKIEIIIKVNKDGKIVSAGGSAGGS [r12_170_TrROS_Hall]	folding stability dG unfold	kcal/mol	2.27

State recorded folding stability dG unfold for all listed sequences.
1. SAGGSAGGSMRFVTIKVPGPDTTFTFDTDGDEALEAKLAELEKKHPEIKKENIEKLEVNPGPGSAGGSAGGS [r12_852_JUSTAS]
2. SAGGSEDRYLVHVLVRFPDELRELYLEARSPEEVERSVRRAIEELYPERLEDVEVVVFARPVSEPLSAGGSA [r2_111_TrMRF]
3. SAGGSEKVTIELEFRNPETGELIATVKIELERLPNGEIKAKIEFTNLPEGVELSEEMKKLLEELLKSAGGSA [r2_7_TrROS_Hall]
4. SAGGSAMTPEEIRNMSLEEILKLIKEKLEKGEKVEIEITLPDGRKLRITFERLPNGEIKITIEEVDSAGGSA [r15_857_TrROS_Hall]

Completion:
-0.345
2.38
2.5
3.53
